The measured values listed here are drawn from ChEMBL document CHEMBL1255280.

- ASSAY: Drug uptake in wild-type mouse brain at 1 mg/kg, iv after 180 mins by LC-MS/MS analysis
- Format: ADME, organism-based
- Set-up: dose 1 mg/kg, route intravenous
- PROTOCOL CONDITIONS: read-out: Drug uptake
MEASURED METRIC: concentration at 3 h (ng/g)

[[record]]
smiles_structure = "CC[C@@H](C(=O)[C@@H](C)[C@@H](O)[C@H](C)[C@@H]1O[C@@H]([C@@H](CC)C(=O)O)CC[C@@H]1C)[C@H]1O[C@]2(C=C[C@@H](O)[C@]3(CC[C@@](C)([C@H]4CC[C@](O)(CC)[C@H](C)O4)O3)O2)[C@H](C)C[C@@H]1C"
reading_unit = "ng/g"
recorded_result = 9.2

